target: human MMP9 (Homo sapiens, UniProt P14780); construct: purchased EMD Millipore; assay: MMP and ADAM activity assay (fluorescence-based): MMP9; type: biochemical; settings: cell-free fluorescence assay
Sequence (P14780 107-707 limits assumed): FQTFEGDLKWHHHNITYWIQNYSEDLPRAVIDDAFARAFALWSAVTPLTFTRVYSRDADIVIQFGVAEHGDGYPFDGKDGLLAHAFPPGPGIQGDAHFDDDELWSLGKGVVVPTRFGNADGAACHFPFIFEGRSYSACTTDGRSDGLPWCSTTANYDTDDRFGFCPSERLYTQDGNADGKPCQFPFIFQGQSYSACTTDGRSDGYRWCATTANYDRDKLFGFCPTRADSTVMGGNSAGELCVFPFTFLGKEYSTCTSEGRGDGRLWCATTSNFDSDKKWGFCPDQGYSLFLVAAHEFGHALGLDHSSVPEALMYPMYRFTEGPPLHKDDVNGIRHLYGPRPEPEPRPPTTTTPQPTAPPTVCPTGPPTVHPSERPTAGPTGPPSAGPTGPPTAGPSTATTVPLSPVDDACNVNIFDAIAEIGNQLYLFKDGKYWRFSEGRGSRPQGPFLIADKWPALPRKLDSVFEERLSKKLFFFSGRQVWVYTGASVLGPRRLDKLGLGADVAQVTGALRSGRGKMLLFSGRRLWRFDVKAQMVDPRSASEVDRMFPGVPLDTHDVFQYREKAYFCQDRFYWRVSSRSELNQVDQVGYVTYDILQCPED
quantity: IC50 (µM)

>  <molecule>
CC#CCOc1ccc(S(=O)(=O)CC(c2ccc(CNS(C)(=O)=O)cc2)N(O)C=O)cc1 (stereo not shown)

>  <observed.result>
5.41

$$$$
